Molecular target: Growth hormone secretagogue receptor type 1 (Homo sapiens, UniProt Q92847)
Sequence (Q92847 whole entry): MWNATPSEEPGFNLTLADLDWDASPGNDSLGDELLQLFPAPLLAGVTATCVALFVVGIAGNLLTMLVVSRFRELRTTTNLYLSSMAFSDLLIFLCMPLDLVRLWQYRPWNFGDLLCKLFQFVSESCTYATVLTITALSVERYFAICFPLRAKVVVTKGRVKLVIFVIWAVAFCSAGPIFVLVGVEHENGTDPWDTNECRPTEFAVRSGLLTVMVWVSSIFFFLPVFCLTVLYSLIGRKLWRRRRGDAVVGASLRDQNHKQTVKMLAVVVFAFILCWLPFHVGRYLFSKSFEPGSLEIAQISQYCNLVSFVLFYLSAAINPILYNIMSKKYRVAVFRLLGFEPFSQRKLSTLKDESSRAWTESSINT
Experiment: Displacement of [125I-His9]-ghrelin from human GRLN receptor by radioligand binding assay
attribute.measured: pKi
Kindly note that pKi refers to -log10 of the concentration in mol/L and answer with the value alone.

Solved entries (count: 3):
Looking for the measured pKi of `CC[C@H](C)[C@@H]1NCCCCCCCCNC(=O)[C@@H](Cc2ccccc2)NC(=O)[C@@H](C)N(C)C1=O` , can you help?
5.82

Then this molecule: `CN1CC(=O)N[C@H](Cc2ccccc2)C(=O)NCCCc2ccccc2OCCN[C@@H](Cc2ccccc2)C1=O`
6.17

Next entry: `CC(C)C[C@@H]1NCCOc2ccccc2CCCNC(=O)[C@@H](Cc2ccccc2)NC(=O)[C@@H](C)N(C)C1=O`
7.60

Further cases:
Please look up its pKi: `CC[C@H](C)[C@@H]1NCCOc2ccccc2CCCNC(=O)[C@@H](Cc2ccc(Cl)cc2)NC(=O)[C@@H](C)N(C)C1=O`
9.46

Same question, `CN1CC(=O)N[C@H](Cc2ccccc2)C(=O)NCCCc2ccccc2OCCN[C@@H](CCCCN)C1=O` this time
5.96

What do you have for `C[C@@H]1C(=O)N[C@H](Cc2ccc(F)cc2)C(=O)NCCCc2ccccc2OC(C)(C)CN[C@@H](C2CC2)C(=O)N1C` ?
7.92

Here is the next molecule: `CC[C@H](C)[C@@H]1NCCCc2ccccc2CCCNC(=O)[C@@H](Cc2ccccc2)NC(=O)[C@@H](C)N(C)C1=O`
7.09

# repeat for `C[C@@H]1C(=O)N[C@H](Cc2ccc(F)cc2)C(=O)NCCCc2ccccc2OCCN[C@@H](C2CC2)C(=O)N1C`
8.14

---

Target: Growth hormone secretagogue receptor type 1 (Homo sapiens)
Assay: Displacement of [125I-His9]-ghrelin from human GRLN receptor by radioligand binding assay
Recorded pKi, one value per entry.
pKi is a log-scale quantity: -log10 of the concentration expressed in molar.

Please review the following examples before continuing.
Identify the measured pKi of `C[C@@H]1C(=O)N[C@H](Cc2cccc(F)c2)C(=O)NCCCc2ccccc2OCCN[C@@H](C2CC2)C(=O)N1C` for Growth hormone secretagogue receptor type 1 (Homo sapiens).
7.68

Try this compound next: `CCC[C@@H]1NC[C@@H](C)Oc2ccccc2CCCNC(=O)[C@@H](Cc2ccc(F)cc2)NC(=O)[C@@H](C)N(C)C1=O`
7.47

Thanks! And `CC[C@H](C)[C@@H]1NCCCc2ccccc2CCCCNC(=O)[C@@H](Cc2ccccc2)NC(=O)[C@@H](C)N(C)C1=O` ?
7.11

Switching to the query record.
Observed pKi on Growth hormone secretagogue receptor type 1 (Homo sapiens) for `CC[C@H](C)[C@@H]1NC[C@@H](C)Oc2ccccc2CCCNC(=O)[C@@H](Cc2ccccc2)NC(=O)[C@@H](C(C)C)NC1=O` , please.
6.42

---

Biological target: Growth hormone secretagogue receptor type 1 (Homo sapiens, UniProt Q92847)
Assay: Displacement of [125I-His9]-ghrelin from human GRLN receptor by radioligand binding assay
Form field: pKi (one value per entry).
// field semantics: pKi = negative decimal log of concentration (mol/L)

Solved entries (count: 4):
Look up pKi: `CC[C@H]1NC(=O)[C@H]([C@@H](C)CC)NC[C@@H](C)Oc2ccccc2CCCNC(=O)[C@@H](Cc2ccccc2)NC1=O`
7.46

Moving on to the next compound: `C[C@@H]1C(=O)N[C@H](Cc2ccc(F)cc2)C(=O)NCCCc2cccc3c2O[C@H](CC3)CN[C@@H](C2CC2)C(=O)N1C`
9.05

And the next one, `C[C@@H]1C(=O)N[C@H](Cc2ccc(F)cc2)C(=O)NCCCc2cc(F)ccc2OCCN[C@@H](C2CC2)C(=O)N1C` ?
7.24

Now try `C[C@@H]1CN[C@@H](C2CC2)C(=O)N(C)[C@H](C)C(=O)N[C@H](Cc2ccc(F)cc2)C(=O)NCCCc2ccc(F)cc2O1` .
7.21

Next:
Look up pKi: `C[C@@H]1CN[C@@H](C2CCCCC2)C(=O)N(C)[C@H](C)C(=O)N[C@H](Cc2ccc(F)cc2)C(=O)NCCCc2ccccc2O1`
9.42

Now this one: `CCC[C@@H]1NCCOc2ccccc2/C=C/CNC(=O)[C@@H](Cc2ccccc2)NC(=O)CN(C)C1=O`
7.07

Query `CCCC[C@H]1NC(=O)CN(C)C(=O)[C@H](CCC)NCCOc2ccccc2CCCNC1=O` next
6.40
